test system: FXR:RXRa (NR concentration 270 nM, RXRa partner concentration 90 nM); assay: PBM binding z-score (relative to random genomic background probes); higher = stronger binding; sequences stand for … in GC…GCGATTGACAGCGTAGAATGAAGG
reported.property: PBM binding z-score
No unit in the answer, only the number.

See these solved cases before continuing.
[
  {
    "ordered.residues": "CCAGACAGGTGACAAGGTAACTCAGCCTCGATTA",
    "PBM binding z-score": 0.0849
  },
  {
    "ordered.residues": "AATACAGGGTCATCGTAGGCGAGAGTACGCACAG",
    "PBM binding z-score": 7.5
  },
  {
    "ordered.residues": "CGAAATAGGTCATCCAGGACAGTGAATACATTGA",
    "PBM binding z-score": 5.99
  },
  {
    "ordered.residues": "TCTAGTTGGTCACAGGTCACACACTCGAAATGCG",
    "PBM binding z-score": 2.89
  },
  {
    "ordered.residues": "ACTTACGGGTCAACCAGGTTATAGCACGCGTATA",
    "PBM binding z-score": 7.15
  }
]

Lab note: need PBM binding z-score with FXR:RXRa (NR concentration 270 nM, RXRa partner concentration 90 nM) for entry ACTCTTAGTTGAGACGAGGGCAACCGATAGGTTG , please look it up.
0.56

Lab note: need PBM binding z-score with FXR:RXRa (NR concentration 270 nM, RXRa partner concentration 90 nM) for entry TGAATGAGGTTATAGATCAGGGAACGTGGCGTCG , please look it up.
1.56

Lab note: need PBM binding z-score with FXR:RXRa (NR concentration 270 nM, RXRa partner concentration 90 nM) for entry ACAGACAGGTGATGAAGGTAACTCTGGCTATCAT , please look it up.
-0.247

Lab note: need PBM binding z-score with FXR:RXRa (NR concentration 270 nM, RXRa partner concentration 90 nM) for entry TAGCCTAGCTCATGGGCCAGTATACCACGCGAAC , please look it up.
-0.822

====

tested on: LXRb:RXRa (NR concentration 270 nM, RXRa partner concentration 90 nM); test: PBM binding z-score (relative to random genomic background probes); higher = stronger binding; sequences stand for … in GC…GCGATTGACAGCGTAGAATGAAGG
Reported values of PBM binding z-score for individual entries

[
  {
    "ordered.residues": "CAAACTAGGTCTAGAGGTCAAAGTCCGCTTCCCG",
    "subject.of.test": "LXRb:RXRa (NR concentration 270 nM, RXRa partner concentration 90 nM)",
    "PBM binding z-score": 4.86
  },
  {
    "ordered.residues": "CAAACTAGGTCAAGGTCAAAGGCGGTTTGTGCCA",
    "subject.of.test": "LXRb:RXRa (NR concentration 270 nM, RXRa partner concentration 90 nM)",
    "PBM binding z-score": 4.34
  },
  {
    "ordered.residues": "AGAACGAGGGCAATGAGTTGATAGAACGGGTGGC",
    "subject.of.test": "LXRb:RXRa (NR concentration 270 nM, RXRa partner concentration 90 nM)",
    "PBM binding z-score": -0.103
  },
  {
    "ordered.residues": "TCTTGAAGATCAACAGGAGGTTAAGAAAGATCGA",
    "subject.of.test": "LXRb:RXRa (NR concentration 270 nM, RXRa partner concentration 90 nM)",
    "PBM binding z-score": 1.15
  },
  {
    "ordered.residues": "AGTCAAAGATCATCTAGGTAACGTAAGATATGCT",
    "subject.of.test": "LXRb:RXRa (NR concentration 270 nM, RXRa partner concentration 90 nM)",
    "PBM binding z-score": -0.0476
  }
]

Could you tell me which PBM binding z-score is on file for TCGAGCAGGTTAGTCGGGGCATTCAGCCAACATA ?
0.593

Could you tell me which PBM binding z-score is on file for CGTCCAAGCTCAGAGAGGTCAGTGAATGCCGAGT ?
1.52

Could you tell me which PBM binding z-score is on file for TAGCCTAGGTTAGATCGGGCCAGTATACGCTATA ?
-0.408

Could you tell me which PBM binding z-score is on file for TCGAGTAGGTTAGTCGGGGCATTCAACCAACATA ?
0.776

Could you tell me which PBM binding z-score is on file for AGATGTAGGTTACATCCGGGTCATTCAGGCTATG ?
2.54

Could you tell me which PBM binding z-score is on file for ACTAGCAGACCAAGTTTGGGTCACTCAAACAAAG ?
0.808

Could you tell me which PBM binding z-score is on file for CCGACTGGGGCATAAGGTTACCTTAAGCCAGCCC ?
0.631
